subject.of.test: EPHB1 (UniProt P54762)
Sequence (P54762 whole entry, looked up): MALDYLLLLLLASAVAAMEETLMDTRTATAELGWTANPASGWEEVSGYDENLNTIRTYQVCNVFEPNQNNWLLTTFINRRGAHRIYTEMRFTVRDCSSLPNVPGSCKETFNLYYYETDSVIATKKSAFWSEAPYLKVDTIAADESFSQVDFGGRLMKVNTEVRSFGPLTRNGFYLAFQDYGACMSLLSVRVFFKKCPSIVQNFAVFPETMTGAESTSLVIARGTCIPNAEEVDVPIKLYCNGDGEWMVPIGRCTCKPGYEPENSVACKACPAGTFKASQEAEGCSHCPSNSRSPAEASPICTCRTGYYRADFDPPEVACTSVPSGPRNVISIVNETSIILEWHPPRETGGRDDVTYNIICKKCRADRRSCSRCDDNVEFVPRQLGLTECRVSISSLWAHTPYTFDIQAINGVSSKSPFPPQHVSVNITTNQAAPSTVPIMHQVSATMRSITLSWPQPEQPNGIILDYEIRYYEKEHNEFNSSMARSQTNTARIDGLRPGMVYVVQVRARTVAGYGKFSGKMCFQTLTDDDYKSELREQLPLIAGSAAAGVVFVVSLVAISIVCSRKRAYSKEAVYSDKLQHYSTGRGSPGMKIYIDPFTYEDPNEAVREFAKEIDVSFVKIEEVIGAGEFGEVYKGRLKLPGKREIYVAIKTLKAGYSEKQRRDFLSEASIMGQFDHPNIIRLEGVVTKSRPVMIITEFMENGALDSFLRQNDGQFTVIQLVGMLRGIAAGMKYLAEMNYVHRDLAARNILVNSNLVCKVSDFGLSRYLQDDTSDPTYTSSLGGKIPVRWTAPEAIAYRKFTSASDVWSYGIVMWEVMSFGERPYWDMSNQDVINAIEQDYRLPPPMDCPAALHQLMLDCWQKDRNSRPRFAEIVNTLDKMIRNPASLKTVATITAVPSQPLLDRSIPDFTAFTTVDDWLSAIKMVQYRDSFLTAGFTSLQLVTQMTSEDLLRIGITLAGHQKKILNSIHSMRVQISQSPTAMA
procedure.details: phosphorylation enrichment, bacterial display (enrichment ratio); higher = better substrate or ligand; peptides without Tyr show the background;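 also: 11-residue human phosphosite peptides and single-mutation variants displayed on the E. coli surface, counted by deep sequencing, each peptide's frequency after selection divided by its frequency in the unselected input library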;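 also: frequency after pTyr selection over input frequency; kinase dosed for 20-30% of maximal phosphorylation in three min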
Each item that follows carries a reported phosphorylation enrichment.
observation.type: phosphorylation enrichment

INSERT INTO assay_data (residues, observation_type, assay_result) VALUES
  ('PEPTGYSAELS [EZR_Y499_A494P]', 'phosphorylation enrichment', 0.573),
  ('LLLLFYVVRFC [MPZ_Y177_YF]', 'phosphorylation enrichment', 0.741),
  ('LPSKDYAEVGR [HP_Y272]', 'phosphorylation enrichment', 1.15),
  ('TESNNYIFKTL [FAM83B_Y637_YF]', 'phosphorylation enrichment', 0.604),
  ('AERKLYSGAQT [ZAP70_Y178]', 'phosphorylation enrichment', 0.436),
  ('LRGEDYGFSVD [PRKCI_Y430]', 'phosphorylation enrichment', 0.686),
  ('TNLVPYPRIHF [TUBA1A_Y262]', 'phosphorylation enrichment', 1.18),
  ('YLEEEYVKAVG [TF_Y674_G671E]', 'phosphorylation enrichment', 0.629);
